- PROCEDURE_DETAILS: Pharmacokinetics and tissue distribution study of HCQ in SD rats after single-dose IV/IT Free HCQ or IT TLC19 (Study No. PK20021)
- RUN_PARAMETERS: Sprague-Dawley, rat, in vivo, iv, 0.59 mg, Cmax of HCQ, rat lung; Free HCQ, IV injection, 0.590 mg/animal
PROPERTY_NAME: Cmax (ng/g)
Reply numerically in ng/g, unit not repeated.

[in] Need Cmax, item CCN(CCO)CCCC(C)Nc1ccnc2cc(Cl)ccc12 (stereo not shown) [Free HCQ, hydroxychloroquine]
[out] 9400

* * *

- PROCEDURE_DETAILS: Pharmacokinetics and tissue distribution study of HCQ in SD rats after single-dose IV/IT Free HCQ or IT TLC19 (Study No. PK20021)
- RUN_PARAMETERS: Sprague-Dawley, rat, in vivo, 0.59 mg/animal
PROPERTY_NAME: concentration at 24 h (ng/g)
Reply numerically in ng/g, unit not repeated.

[in] Need concentration at 24 h, item CCN(CCO)CCCC(C)Nc1ccnc2cc(Cl)ccc12 (stereo not shown) [Free HCQ, hydroxychloroquine]
[out] 2160
